Listed next: entries and their corresponding Kd.
Target: T1, human TREM2 Fc fusion (entire TREM2 ECD; only one Fc arm fused to TREM2) (human, UniProt Q9NZC2 19-174)
T1 construct: also called huTREM2-Fc; recombinant hTREM2
T1 sequence: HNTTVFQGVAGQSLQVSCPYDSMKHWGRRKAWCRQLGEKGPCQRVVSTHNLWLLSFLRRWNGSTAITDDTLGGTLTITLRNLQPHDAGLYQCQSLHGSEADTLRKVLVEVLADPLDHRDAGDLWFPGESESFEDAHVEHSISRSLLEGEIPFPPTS
Test: BLI, Fab, monovalent
Write down the numeric answer in nM and omit the unit.

Completed entries (count: 6):
Task item: Determine from records and report Kd for AL2p-33 (antibody, V domains shown, Fab and IgG formats under one id) VH: EVQLVQSGAEVKKPGSSVKVSCKASGYAFSSSWMNWVRQAPGQGLEWMGRIYPGDGDTNYAQKFQGRVTITADESTSTAYMELSSLRSEDTAVYYCARLLRNQPGESYAMDYWGQGTLVTVSS VL: GVVMAQTPLSLSVTPGQPASISCRTSQSLVHSNGYTYLHWYLQKPGQSPQLLIYKVSNRVSGVPDRFSGSGSGTDFTLKISRVEAEDVGVYYCSQSTRVPYTFGQGTKLEIK
Reply: 10.3

Task item: Return Kd for the following binder: AL2p-h77 (antibody, human IgG1, V domains shown, humanized, human IgG1; Fab and IgG formats under one id; also called A2p-h77) VH: QVQLVQSGAEVKKPGASVKVSCKASGYAFSSSWMNWVRQAPGQRLEWIGRIYPGDGDTNYAQKFQGRVTITADTSASTAYMELSSLRSEDTAVYYCARLLRNQPGESYAMDYWGQGTLVTVSS VL: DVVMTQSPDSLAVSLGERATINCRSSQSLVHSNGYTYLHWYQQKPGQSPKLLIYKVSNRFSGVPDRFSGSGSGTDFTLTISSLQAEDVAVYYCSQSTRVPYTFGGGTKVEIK
Reply: 102

Task item: Respond only with Kd recorded for AL2p-31 (antibody, V domains shown, Fab and IgG formats under one id) VH: QVQLVQSGAEVKKPGSSVKVSCKASGYAFSSQWMNWVRQAPGQGLEWMGRIYPGGGDTNYARKFQGRVTITADESTSTAYMELSSLRSEDTAVYYCARLLRNQPGESYAMDYWGQGTLVTVSS VL: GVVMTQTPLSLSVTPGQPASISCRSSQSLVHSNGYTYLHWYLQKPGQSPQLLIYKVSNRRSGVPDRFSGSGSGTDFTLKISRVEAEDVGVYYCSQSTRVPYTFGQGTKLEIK
Reply: 4.03

Task item: Identify measured Kd corresponding to AL2p-13 (antibody, V domains shown, Fab and IgG formats under one id; also called AL22-13) VH: QVQLVQSGAEVKKPGSSVKVSCKASGYAFSSHWMNWVRQAPGQGLEWMGRIYPGDGDTNYAQKFKGRVTITADESTSTAYMELSSLRSEDTAVYYCARLLRNQPGESYAMDYWGQGTLVTVSS VL: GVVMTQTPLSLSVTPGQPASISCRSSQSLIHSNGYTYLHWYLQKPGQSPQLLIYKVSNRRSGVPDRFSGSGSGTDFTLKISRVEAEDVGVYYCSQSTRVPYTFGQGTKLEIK
Reply: 4.8

Task item: Consider the binder AL2p-42 (antibody, V domains shown, Fab and IgG formats under one id) VH: QVQLVQSGAEVKKPGSSVKVSCKASGYAFSSHWMNWVRQAPGQGLEWMGRIYPGEGDTNYAQKFRGRVTITADESTSTAYMELSSLRSEDTAVYYCARLLRNQPGASYAMDYWGQGTLVTVSS VL: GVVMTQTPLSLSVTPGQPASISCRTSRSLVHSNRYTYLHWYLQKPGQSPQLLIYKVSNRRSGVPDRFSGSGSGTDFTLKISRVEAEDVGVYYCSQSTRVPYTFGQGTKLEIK and give its recorded Kd.
Reply: 0.829

Task item: # return recorded Kd for input AL2p-2 (antibody, V domains shown, AL2p-h50 variant; Fab and IgG formats under one id) VH: QVQLVQSGAEVKKPGSSVKVSCKASGYAFSSSWMNWVRQAPGQGLEWMGRIYPGGGDTNYAQKFQGRVTITADESTSTAYMELSSLRSEDTAVYYCARLLRNQPGESYAMDYWGQGTLVTVSS VL: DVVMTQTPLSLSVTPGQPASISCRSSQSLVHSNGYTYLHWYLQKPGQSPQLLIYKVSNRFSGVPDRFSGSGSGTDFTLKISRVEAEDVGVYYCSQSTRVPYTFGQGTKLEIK
Reply: 63.3

Continuing:
Task item: Check the records and state Kd for AL2p-24 (antibody, V domains shown, Fab and IgG formats under one id) VH: QVQLVQSGAEVKKPGSSVKVSCKASGYAFSSHWMNWVRQAPGQGLEWMGRIYPGGGDTNYAQKFQGRVTITADESTSTAYMELSSLRSEDTAVYYCARLLRNQPGESYAMDYWGQGTLVTVSS VL: GVVMTQTPLSLSVTPGQPASISCRSSRSLVHSNGYTYLHWYLQKPGQSPQLLIYKVSNRFSGVPDRFSGSGSGTDFTLKISRVEAEDVGVYYCSQSTRVPYTFGQGTKLEIK
Reply: 2.1

Task item: Give a short answer stating reported Kd for AL2p-15 (antibody, V domains shown, Fab and IgG formats under one id) VH: QVQLVQSGAEVKKPGSSVKVSCKASGYAFSSHWMNWVRQAPGQGLEWMGRIYPGDGDTNYAQKFQGRVTITADESTSTAYMELSSLRSEDTAVYYCARLLRNQPGESYAMDYWGQGTLVTVSS VL: GVVMTQTPLSLSVTPGQPASISCRSSSSLVHSNGYTYLHWYLQKPGQSPQLLIYKVSNRKSGVPDRFSGSGSGTDFTLKISRVEAEDVGVYYCSQSTRVPYTFGQGTKLEIK .
Reply: 8.85

Task item: Return value of Kd for input AL2p-h50 (antibody, human IgG1, V domains shown, humanized, human IgG1; Fab and IgG formats under one id) VH: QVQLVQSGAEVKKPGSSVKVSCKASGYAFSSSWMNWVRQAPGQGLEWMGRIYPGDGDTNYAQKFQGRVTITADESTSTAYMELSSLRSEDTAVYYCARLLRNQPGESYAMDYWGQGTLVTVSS VL: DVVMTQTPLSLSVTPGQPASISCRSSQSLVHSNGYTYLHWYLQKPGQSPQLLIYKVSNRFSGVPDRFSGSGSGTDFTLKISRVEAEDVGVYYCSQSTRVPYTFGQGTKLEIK , no commentary.
Reply: 112

Task item: Report Kd for AL2p-9 (antibody, V domains shown, Fab and IgG formats under one id) VH: QVQLVQSGAEVKKPGSSVKVSCKASGYAFSRSWMNWVRQAPGQGLEWMGRIYPGDGDTNYAQKFQGRVTITADESTSTAYMELSSLRSEDTAVYYCARLLRNQPGASYAMDYWGQGTLVTVSS VL: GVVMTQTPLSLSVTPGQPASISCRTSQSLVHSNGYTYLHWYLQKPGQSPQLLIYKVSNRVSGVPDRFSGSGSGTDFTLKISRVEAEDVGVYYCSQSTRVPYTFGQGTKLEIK
Reply: 6.44
